Protocol Text: in vivo
Settings: female, athymic nude, mouse, blood pool surrogate (BPS), iv, uptake BPS 3 h, ^68Ga-labeled; BPS (blood pool surrogate); PET/CT; 3 h post tracer injection
Numbered stars: 1 amine (or outer) side, 2 acyl side, 3 side chain; on linkers, the order of the positions; unused ones are H or OH. Bridge positions count the residues as written; N and C are the ends. Square brackets hold non-standard residues; d marks the D form. Peptide text beside a SMILES is read from it. * marks the point of attachment. ξ: configuration not given here. X7 = O=C(CCP(=O)(O)CN1CCN(CP(=O)(O)CO)CCN(CP(=O)(O)CO)CC1)NCCSCc1cc(C[*:1])cc(C[*:2])c1; X11 = O=C(O)CN1CCN(CC(=O)O)CCN(C(CCC(=O)NCCSCc2cc(C[*:1])cc(C[*:2])c2)C(=O)O)CC1; CO = O=C([*:1])[*:2]; ξC = NC(CS)C(=O)O; NHBu = CCCCN*

[
  {
    "Molecule": "CCCCNC(=O)N[C@H]1CSCc2cc(CSCCNC(=O)CCP(=O)(O)CN3CCN(CP(=O)(O)CO)CCN(CP(=O)(O)CO)CC3)cc(c2)CSCC(C(=O)O)NC(=O)[C@H](Cc2ccccc2)NC(=O)[C@H](CCC(=O)O)NC(=O)[C@H]([C@@H](C)O)NC(=O)[C@@H]2CCCN2C(=O)[C@@H]2CCCN2C1=O (stereo partly drawn) [3BP-4778] ({NHBu-CO}-CPPTEF[ξC]-OH; linker 1-7 via X7)",
    "tissue uptake at 3 h [%ID/g]": 0.33
  },
  {
    "Molecule": "CCCCNC(=O)N[C@H]1CSCc2cc(CSCCNC(=O)CCP(=O)(O)CN3CCN(CP(=O)(O)CO)CCN(CP(=O)(O)CO)CC3)cc(c2)CSCC(C(=O)O)NC(=O)[C@H](Cc2ccccc2)NC(=O)[C@H](CCC(N)=O)NC(=O)[C@H]([C@@H](C)O)NC(=O)[C@@H]2CCCN2C(=O)[C@@H]2CCCN2C1=O (stereo partly drawn)",
    "tissue uptake at 3 h [%ID/g]": 0.27
  },
  {
    "Molecule": "CCCCNC(=O)N[C@H]1CSCc2cc(CSCCNC(=O)CCC(C(=O)O)N3CCN(CC(=O)O)CCN(CC(=O)O)CC3)cc(c2)CSCC(C(=O)O)NC(=O)[C@H](Cc2ccccc2)NC(=O)[C@H](CCC(=O)O)NC(=O)[C@H]([C@@H](C)O)NC(=O)[C@@H]2CCCN2C(=O)[C@@H]2CCCN2C1=O (stereo partly drawn) [3BP-4724] ({NHBu-CO}-CPPTEF[ξC]-OH; linker 1-7 via X11)",
    "tissue uptake at 3 h [%ID/g]": 0.49
  }
]

* * *

Listing: IC50 of selected compounds
System: Human recombinant FAP (Homo sapiens, UniProt Q12884)
Sequence (Q12884 whole entry): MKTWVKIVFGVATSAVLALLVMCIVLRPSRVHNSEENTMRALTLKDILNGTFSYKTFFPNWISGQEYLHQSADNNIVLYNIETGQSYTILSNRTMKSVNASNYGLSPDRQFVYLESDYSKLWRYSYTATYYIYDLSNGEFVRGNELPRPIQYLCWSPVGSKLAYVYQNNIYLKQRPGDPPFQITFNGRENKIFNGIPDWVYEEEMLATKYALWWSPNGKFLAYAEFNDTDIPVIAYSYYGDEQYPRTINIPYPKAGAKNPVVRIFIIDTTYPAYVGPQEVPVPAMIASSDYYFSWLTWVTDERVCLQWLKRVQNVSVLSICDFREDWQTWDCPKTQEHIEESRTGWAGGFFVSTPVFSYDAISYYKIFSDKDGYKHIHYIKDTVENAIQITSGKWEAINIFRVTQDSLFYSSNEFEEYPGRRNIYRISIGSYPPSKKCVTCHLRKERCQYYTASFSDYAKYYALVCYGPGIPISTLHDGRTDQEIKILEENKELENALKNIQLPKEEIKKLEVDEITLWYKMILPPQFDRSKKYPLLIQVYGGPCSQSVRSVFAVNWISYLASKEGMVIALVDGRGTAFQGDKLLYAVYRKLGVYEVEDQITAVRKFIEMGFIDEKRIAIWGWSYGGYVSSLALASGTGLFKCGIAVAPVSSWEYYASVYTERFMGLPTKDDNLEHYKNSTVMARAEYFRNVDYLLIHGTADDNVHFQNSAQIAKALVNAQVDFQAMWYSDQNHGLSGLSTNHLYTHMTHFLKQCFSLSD
Protocol Text: FRET-based FAP protease activity assay
Type: biochemical
Design: purchased R&D systems 3715-SE
Settings: pIC50 Category (Activity), FRET-peptide substrate, 37° C.

[
  {
    "Structure String": "CCCOCC(=O)N[C@H]1CSCc2cc(CSCCNC(=O)CN3CCN(CC(=O)O)CCN(CC(=O)O)CCN(CC(=O)O)CC3)cc(c2)CSC[C@@H](C(=O)O)NC(=O)[C@H](Cc2ccccc2)NC(=O)[C@H](CCC(N)=O)NC(=O)[C@H]([C@@H](C)O)NC(=O)[C@@H]2CCCN2C(=O)[C@@H]2CCCN2C1=O",
    "IC50": "< 10 nM"
  },
  {
    "Structure String": "CCCC[C@H](NC(=O)CCC(=O)NCCCOCCOCCOCCCNC(=O)CC[C@H](NC(=O)C(CNCCN)CNCCN)C(=O)O)C(=O)N[C@H]1CSCc2cccc(c2)CSC[C@@H](C(=O)O)NC(=O)[C@H](Cc2ccccc2)NC(=O)[C@H](CCC(N)=O)NC(=O)[C@H]([C@@H](C)O)NC(=O)[C@@H]2CCCN2C(=O)[C@@H]2CCCN2C1=O",
    "IC50": "10 to 79.4 nM"
  }
]
